Entries and their measured composite z-score follow.
molecular target: Torsin-1A-interacting protein 2 (Homo sapiens) (UniProt Q8NFQ8); test: small molecules binding lysate-expressed LULL1 – cell lysate, human LULL1 lysate, 635/667 nm fluorescence, primary screen (AID 1092); conditions: small-molecule microarray, hLULL1 lysate binding, 635 nm fluorescence; higher = more signal;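 further: probe is lysate of COS7 cells overexpressing human LULL1; score merges per-feature 667 nm fluorescence with signal-to-noise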
Sequence (Q8NFQ8 whole entry, looked up): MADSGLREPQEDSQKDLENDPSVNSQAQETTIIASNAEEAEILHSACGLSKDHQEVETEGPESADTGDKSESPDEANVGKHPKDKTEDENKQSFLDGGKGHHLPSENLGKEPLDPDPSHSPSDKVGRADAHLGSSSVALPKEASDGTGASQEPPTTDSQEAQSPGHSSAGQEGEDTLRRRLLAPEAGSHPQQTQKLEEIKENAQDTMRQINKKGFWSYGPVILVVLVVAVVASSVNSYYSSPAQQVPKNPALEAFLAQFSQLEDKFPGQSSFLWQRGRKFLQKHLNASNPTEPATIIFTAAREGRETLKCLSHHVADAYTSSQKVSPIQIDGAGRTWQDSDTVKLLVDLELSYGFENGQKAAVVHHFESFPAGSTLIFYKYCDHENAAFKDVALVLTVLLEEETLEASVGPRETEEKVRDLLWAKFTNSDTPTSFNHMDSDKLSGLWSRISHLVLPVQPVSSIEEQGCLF

Compound	System under test	composite z-score
[N-]=[N+]=NCc1ccccc1[C@H]1OC(c2ccc(OCCCO)cc2)=N[C@@]1(Cc1ccccc1)C(=O)NCC(O)CO (stereo partly drawn)	Torsin-1A-interacting protein 2 (Homo sapiens) (UniProt Q8NFQ8)	3.5
C=CC[C@]1(C(=O)NCCN2CCOCC2)N=C(c2ccc(OCCCO)cc2)O[C@H]1c1ccccc1N=[N+]=[N-]	Torsin-1A-interacting protein 2 (Homo sapiens) (UniProt Q8NFQ8)	3
NC(=O)NCC#Cc1ccc2c(c1)[C@]1(C(=O)N2)[C@H](C(=O)NC[C@H](O)c2ccccc2)[C@H]2C(=O)O[C@H](c3ccccc3)[C@H](c3ccccc3)N2[C@@H]1c1ccccc1OCCO	Torsin-1A-interacting protein 2 (Homo sapiens) (UniProt Q8NFQ8)	2.35

Where do these numbers come from? They come from PubChem BioAssay.
